# assay-procedure: qHTS Assay for NPC1 Promoter Activators; note: nearly all actives have a fitted effect of over 60% in size;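 for activation: reporter is driven by a mutant NPC1 promoter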
# conditions: Huh7 NPC1 promoter luciferase reporter, 24 h; series mostly up to 9.22 µM
The whole screen tested about 320,000 compounds, of which about 7,600 (2.4%) were called active. Another 3% or so got no clear call; they are omitted. Calls come from the whole dose curve; as a rule, active = well fitted activation curve with a large enough effect; inconclusive = small, poorly fitted or top-dose-only effect; inactive = no such curve, though single readings can be large or run the other way. This excerpt belongs to a sample that is enriched for actives.
Select the correct class. Options are active, inactive and nothing else.

CC1CC2C3CCC4=CC(=O)C=C[C@]4(C)[C@@]3(F)[C@@H](O)C[C@]2(C)[C@@]1(O)C(=O)CO (stereo partly specified) : inactive
Cc1cc(C(=O)COC(=O)CCCN2C(=O)c3ccccc3C2=O)c(C)n1C : inactive
COc1cc(CN2CCC(C(N)=O)CC2)ccc1OCc1ccccc1 : active
CC(=O)Nc1ccc(NC(=O)CSc2nnc(C3CC3)n2-c2ccccc2)cc1 : inactive
COc1ccc(COCC(O)CN2CCC(C(N)=O)CC2)cc1 (stereo unspecified) : inactive

// param item: CC(=O)c1sc(N/N=C/c2ccc(C(C)C)cc2)nc1C ; yields the recorded call
active

// param item: Cc1nnc(C)n1/N=C/c1ccc(C(C)C)cc1 ; yields the recorded call
inactive

// param item: C=CCn1c(C)cc(C(=O)CN2C(=O)c3ccccc3C2=O)c1C ; yields the recorded call
active

// param item: CC(=O)c1sc(N/N=C\c2ccc(C)cc2)nc1C ; yields the recorded call
active

// param item: CCOC(=O)c1sc(NC(=O)c2sc(C)nc2C)nc1C ; yields the recorded call
inactive

// param item: O=C(CNC(=O)c1ccc2ccccc2c1)Nc1ncccc1O ; yields the recorded call
inactive
